Please respond with reported viability, T/C for every item in the list.
# Tested on: K24384-001-R-PDC complex spheroid viability;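 note: spheroids exposed to agents for seven days before luminescence viability reading; 100% = DMSO vehicle control viability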
# Measurement Protocol: Anticancer human tumor K24384-001-R-PDC patient-derived pancreatic adenocarcinoma cell line growth inhibition
# Assay Conditions: second compound 0.1 µM; first compound 0.316 µM; stronger effect = lower value

viability, T/C in this record for Nc1ncn(C2CC(O)C(CO)O2)c(=O)n1 (stereo not drawn) + NC1CC1c1ccc(-c2cccc(O)c2)cc1 : 70.4%

viability, T/C in this record for O=C(c1cc(Cc2n[nH]c(=O)c3ccccc23)ccc1F)N1CCN(C(=O)C2CC2)CC1 + NC1CC1c1ccc(-c2cccc(O)c2)cc1 : 84.4%

viability, T/C in this record for COc1cc(Nc2ncc3c(n2)-c2ccc(Cl)cc2C(c2c(F)cccc2OC)=NC3)ccc1C(=O)O + NC1CCC(NC2CC2c2ccccc2)CC1 : 58.4%

viability, T/C in this record for COc1ccc([C@@H](O)c2cc(-c3ncnc4cc(N5CCOCC5)ccc34)c(F)cc2Cl)nn1 + NC1CC1c1ccc(-c2cccc(O)c2)cc1 : 87.2%

viability, T/C in this record for O=C(C=Cn1cnc(-c2cc(C(F)(F)F)cc(C(F)(F)F)c2)n1)NNc1cnccn1 + NC1CC1c1ccc(-c2cccc(O)c2)cc1 : 24.7%

viability, T/C in this record for CC(C)c1c(-c2ccccc2)nc2c(C#N)c[nH]n2c1=O + NC1CC1c1ccc(-c2cccc(O)c2)cc1 : 71%

viability, T/C in this record for COc1ccc([C@@H](O)c2cc(-c3ncnc4cc(N5CCOCC5)ccc34)c(F)cc2Cl)nn1 + NC1CCC(NC2CC2c2ccccc2)CC1 : 89.8%

viability, T/C in this record for O=C(c1cc(Cc2n[nH]c(=O)c3ccccc23)ccc1F)N1CCN(C(=O)C2CC2)CC1 + NC1CCC(NC2CC2c2ccccc2)CC1 : 81.6%

viability, T/C in this record for CC(C)c1c(-c2ccccc2)nc2c(C#N)c[nH]n2c1=O + NC1CCC(NC2CC2c2ccccc2)CC1 : 77.7%

viability, T/C in this record for CC1COCCN1c1cc(-c2ccnn2C)c2ccnc(-c3ccn[nH]3)c2n1 (stereo not drawn) + NC1CCC(NC2CC2c2ccccc2)CC1 : 52.2%

viability, T/C in this record for CC1(C)CCC(CN2CCN(c3ccc(C(=O)NS(=O)(=O)c4ccc(NCC5CCOCC5)c([N+](=O)[O-])c4)c(Oc4cnc5[nH]ccc5c4)c3)CC2)=C(c2ccc(Cl)cc2)C1 + NC1CCC(NC2CC2c2ccccc2)CC1 : 85%

viability, T/C in this record for COc1cc(Nc2ncc3c(n2)-c2ccc(Cl)cc2C(c2c(F)cccc2OC)=NC3)ccc1C(=O)O + NC1CC1c1ccc(-c2cccc(O)c2)cc1 : 55.8%

viability, T/C in this record for CC1(C)CCC(CN2CCN(c3ccc(C(=O)NS(=O)(=O)c4ccc(NCC5CCOCC5)c([N+](=O)[O-])c4)c(Oc4cnc5[nH]ccc5c4)c3)CC2)=C(c2ccc(Cl)cc2)C1 + NC1CC1c1ccc(-c2cccc(O)c2)cc1 : 88.3%
